Origin of values: the Immune Epitope Database (IEDB)

molecular target: HLA-A*02:01; test: IEDB peptide-MHC binding, purified MHC/competitive/radioactivity; bounds were set here for any values at or beyond the usual limits of such assays; conditions: source organism: Homo sapiens
Record form. Attribute: pIC50. Fill in for each entry.
Answers are plain numbers, as −log10 of the molar value.

chain	recorded_number
LLCLVVFFL	6.17

Provide reported pIC50 for each item, in the same order as listed.
1. GLFLSLGLV
2. SLVENALVV

Reply |
[6.27, 6.37]

Provide reported pIC50 for each item, in the same order as listed.
1. VLETAVGLL
2. SLNSTPTAI
3. TILLGIFFL

Reply |
6.62
6.20
6.34

Provide reported pIC50 for each item, in the same order as listed.
1. AVMDPFIYA
2. GLVSLVENA
3. FLSLGLVSL
4. ALIICNAII

Reply |
1: 6.12; 2: 6.27; 3: 6.69; 4: 6.05
